B1: HHH_rd1_0493 (parent)
chain: RDEDEKEKIKEALKRGNEDKAKEIAKRANVSPEEYERLRKEAE

Variants of: B1
Assay Protocol: folding stability dG (cDNA display proteolysis); higher = more stable
Particulars: PBS, room temperature
Provide the reported folding stability dG of each item.
Report the figure along with its unit, number first.

# Mutation Label, Meas Value
data = [
    ("I9Y", "0.577 kcal/mol"),
]

The following variants each have a reported value; give each one's folding stability dG.
1. K22N
2. K6C
3. E36G
4. K8P
5. R39N
6. D2V
7. K10R

RESULT:
["2.11 kcal/mol", "1.8 kcal/mol", "1.13 kcal/mol", "0.847 kcal/mol", "1.18 kcal/mol", "3.17 kcal/mol", "2.49 kcal/mol"]

The following variants each have a reported value; give each one's folding stability dG.
1. R27L
2. K8V
3. E34M
4. R15E
5. E5P
6. A21Y

RESULT:
2.82 kcal/mol
1.94 kcal/mol
1.72 kcal/mol
3.24 kcal/mol
3.46 kcal/mol
0.355 kcal/mol

The following variants each have a reported value; give each one's folding stability dG.
1. K6Q
2. A25F
3. E41L
4. K6G
5. K20T

RESULT:
1: 2.39 kcal/mol; 2: 0.695 kcal/mol; 3: 2.63 kcal/mol; 4: 2.46 kcal/mol; 5: 2.76 kcal/mol

The following variants each have a reported value; give each one's folding stability dG.
1. P32A
2. N17T

RESULT:
1. 3.03 kcal/mol
2. 1.63 kcal/mol
